- Tested on: Staphylococcus epidermidis
- testDescription: Antibacterial activity against methicillin-sensitive Staphylococcus epidermidis ATCC 12228 assessed as bacterial growth inhibition incubated for 16 to 20 hrs by CLSI based two-fold serial dilution method
- Format: functional
- runParameters: time 16-20 hrs
Please provide measured MIC for the entries that follow.
# number only, unit µg/mL dropped from output

Query: Query (molecule): C[C@H]1COc2c(N3CCN(C)CC3)c(F)cc3c(=O)c(C(=O)O)cn1c23 [LEVOFLOXACIN ANHYDROUS] ; field requested: MIC
Response: 0.25

Query: Value lookup for MIC; key = CC1=CC(O)=C2C(=O)c3c(ccc(-c4ccc5c(c4O)C(=O)C4=C(O)C=C(C)[C@H](O)[C@]4(C)O5)c3O)O[C@@]2(C)[C@H]1O
Response: 1

Query: What value of MIC has been reported for the following molecule? CC1=CC(O)=C2C(=O)c3c(ccc(-c4ccc5c(c4O)C(=O)[C@@]4(O)C(=O)C=C(C)[C@H](O)[C@]4(C)O5)c3O)O[C@]2(C)[C@H]1O
Response: 0.5

Query: Given CC1=CC(O)=C2C(=O)c3c(ccc(-c4ccc5c(c4O)C(=O)C4=C(O)C=C(C)C(=O)[C@]4(C)O5)c3O)O[C@@]2(C)C1=O , state its recorded MIC.
Response: 0.25
